Values compiled from patent US7476662B2.

Catalogue of molecules with associated melting point

Answered examples (3):
molecule: Cc1nc2sccn2c(=O)c1CCN1CCC(=C2c3ccccc3CCn3c2nc2ccccc23)CC1 [Compound 5]
result: 224.9 °C

molecule: Cc1nc2sccn2c(=O)c1CCN1CCC(C2c3ccccc3C(c3ccccc3)Cn3c2nc2ccccc23)CC1Cc1ccccc1 (stereo not shown) [Compound 7]
result: 213.2 °C

molecule: Cc1nc2sccn2c(=O)c1CCN1CCC(=C2c3ccccc3C=Cn3c2nc2ccccc23)CC1 [Compound 8]
result: 178.8 °C

Proceeding to the next molecule to report its melting point.
query: May I ask what melting point has been recorded for Cc1nc2ccccn2c(=O)c1CCN1CCC(C2(C)c3ccccc3CCn3c2nc2ccccc23)CC1 (stereo not shown) (hydrate or solvate) [Compound 6] ?
result: 133.9 °C
